assay: Pharmacokinetic assay in Balb/c mice (plasma and brain tissue); assay type: in vivo; conditions: male, Balb/c, mouse, in vivo, po, 5 mg/kg, Half-life t1/2
Listed here: items and their measured half-life.
Write the value in min as a bare number.

// solved cases for half-life follow
{"structure-smiles": "C[C@@]1(O)CC[C@@]2(F)[C@H](CC[C@H]3[C@@H]4CC[C@H](C(=O)Cn5nc6ccc(F)cc6n5)[C@@]4(C)CC[C@@H]32)C1", "half-life / min": 252}
{"structure-smiles": "C[C@@]1(O)CC[C@@]2(F)[C@H](CC[C@H]3[C@@H]4CC[C@H](C(=O)Cn5ccc(C(F)(F)F)n5)[C@@]4(C)CC[C@@H]32)C1", "half-life / min": 69.6}
{"structure-smiles": "C[C@@]1(O)CC[C@@]2(F)[C@H](CC[C@H]3[C@@H]4CC[C@H](C(=O)COc5cnc(C(F)(F)F)nc5)[C@@]4(C)CC[C@@H]32)C1", "half-life / min": 263}

Continue with the next molecule.
Query string: Need half-life of C[C@@]1(O)CC[C@@]2(F)[C@H](CC[C@H]3[C@@H]4CC[C@H](C(=O)Cn5cc(C(F)(F)F)cn5)[C@@]4(C)CC[C@@H]32)C1 , thanks.
Result string: 104

* * *

assay: Pharmacokinetic assay in Balb/c mice (plasma and brain tissue); type: in vivo; settings: male, Balb/c, mouse, in vivo, po, 5 mg/kg
Give YES when the value for Mean residence time MRT is at least 2 h. Give NO when it is less.

// below: answered compounds
{"compound": "C[C@@]1(O)CC[C@@]2(F)[C@H](CC[C@H]3[C@@H]4CC[C@H](C(=O)Cn5cc(C(F)(F)F)cn5)[C@@]4(C)CC[C@@H]32)C1", "class": "YES"}
{"compound": "C[C@@]1(O)CC[C@@]2(F)[C@H](CC[C@H]3[C@@H]4CC[C@H](C(=O)COc5cnc(C(F)(F)F)nc5)[C@@]4(C)CC[C@@H]32)C1", "class": "YES"}
{"compound": "C[C@@]1(O)CC[C@@]2(F)[C@H](CC[C@H]3[C@@H]4CC[C@H](C(=O)CNc5ccc(F)cc5)[C@@]4(C)CC[C@@H]32)C1", "class": "YES"}
{"compound": "C[C@@]1(O)CC[C@@]2(F)[C@H](CC[C@H]3[C@@H]4CC[C@H](C(=O)Cn5ccc(C(F)(F)F)n5)[C@@]4(C)CC[C@@H]32)C1", "class": "NO"}
{"compound": "C[C@@]1(O)CC[C@]2(F)C3CC[C@]4(C)[C@@H](C(=O)Cn5cc(C#N)c(Cl)n5)CC[C@H]4[C@@H]3CC[C@@H]2C1 (some centres unmarked)", "class": "YES"}
{"compound": "C[C@@]1(O)CC[C@@]2(F)[C@H](CC[C@H]3[C@@H]4CC[C@H](C(=O)Cn5nc6ccc(F)cc6n5)[C@@]4(C)CC[C@@H]32)C1", "class": "YES"}
{"compound": "Cc1nnn(CC(=O)[C@H]2CC[C@H]3[C@@H]4CC[C@@H]5C[C@](C)(O)CC[C@]5(F)[C@H]4CC[C@]23C)n1", "class": "NO"}
{"compound": "C[C@@]1(O)CC[C@]2(F)C3CC[C@]4(C)[C@@H](C(=O)CNc5ccc(F)cc5F)CC[C@H]4[C@@H]3CC[C@@H]2C1 (some centres unmarked)", "class": "YES"}
{"compound": "C[C@@]1(O)CC[C@@]2(F)[C@H](CC[C@H]3[C@@H]4CC[C@H](C(=O)Cn5ncnn5)[C@@]4(C)CC[C@@H]32)C1", "class": "NO"}
{"compound": "C[C@@]1(O)CC[C@@]2(F)[C@H](CC[C@H]3[C@@H]4CC[C@H](C(=O)Cn5nc(C#N)cc5C#N)[C@@]4(C)CC[C@@H]32)C1", "class": "YES"}

# evaluate next
Query string: Is Mean residence time MRT for Cc1nn(CC(=O)[C@H]2CC[C@H]3[C@@H]4CC[C@@H]5C[C@](C)(O)CC[C@]5(F)[C@H]4CC[C@]23C)cc1C#N at or above 2 h?
Result string: NO
